Entry source: PubChem BioAssay AID179

Tested on: CEM cells HIV-1 protection, formazan growth assay
Method Notes: NCI AIDS Antiviral Assay;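 active means compounds giving half or more protection of infected cells from virus-caused growth loss, again on retest; inactive means the rest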
Select the matching outcome among active, inactive

molecule=CCCC(CCC)C(=O)[O-].CCCC(CCC)C(=O)[O-].CCCC(CCC)C(=O)[O-].CCCC(CCC)C(=O)[O-].[Cu+2].[Cu+2] discrete_label=inactive
molecule=CC(=O)O[C@@H]1CO[C@H]2O[C@H]3[C@@H](C(C=O)=C[C@H](O)[C@@H]4C5=C(C(C)C)CC[C@]5(C)CC[C@@]34C)[C@@]2(O)C1=O discrete_label=inactive

Exercise: So what was the verdict on "O=C(CCCC[n+]1ccccc1)Sc1ccccc1C(=O)Nc1ccc(S(=O)(=O)Nc2nccs2)cc1" in this test?
Key: active

Exercise: Which outcome did this test record for the molecule "Cc1ccc2[nH]c3c(ncc4[nH]c5ccccc5c43)c2c1" ?
Key: inactive

Exercise: What outcome does the record of this test show for CCC1Oc2c(CC=C(C)C)c(O)c(C(O)C(C)CC)c3oc(=O)cc1c23 (centres undefined) ?
Key: inactive

Exercise: Could you kindly confirm the outcome this assay logged for "ONC1=Nc2ccccc2OCc2cc(Br)c(Br)cc2COc2ccccc2N=C1NO" ?
Key: inactive

Exercise: Hey, what did the test say about COc1ccc2[nH]c3c(c2c1)[C@H]1CCC(C(C)(C)C)C[C@H]1[C@H]1C(=O)N(c2ccccc2)C(=O)[C@@H]31 (some centres undefined) ?
Key: inactive

Exercise: For "C=CC1(c2ccc3ccccc3c2)OCC(CC)(CC)CO1" , what call appears in the results of this test?
Key: inactive

Exercise: State the result this test recorded for "CCOc1cnn(-c2ccccc2)c(=O)c1Cl" .
Key: inactive
